# inhibition in vivo at 0.0001 µmol/kg listing for each entry below
tested on: Mus musculus; experiment: inhibition of acute TPA-induced ear swelling in mice on oral administration of 0.1 nmol/kg; format: functional
Give your result in % as a bare value.

See these solved cases before continuing.
molecule="CC(C)Cc1ccc(C(C)C(=O)O)cc1 (stereo unspecified) [IBUPROFEN]" measured_result=35
molecule=O=C(CCc1c[nH]c2ccccc12)Nc1ccncc1 measured_result=77
molecule=Cc1cc(C)nc(NC(=O)CCc2c[nH]c3ccccc23)c1 measured_result=72
molecule=O=C(CCc1cn(Cc2ccccc2)c2ccccc12)NCc1cccnc1 measured_result=70
molecule=Cc1cc(C)nc(NC(=O)CCc2cn(Cc3ccc(Cl)cc3)c3ccccc23)c1 measured_result=64

For the molecule O=C(CCn1ccc2ccccc21)Nc1ccncc1 , what inhibition in vivo at 0.0001 µmol/kg is on record?
77

Same again, this time with O=C(CCc1cn(Cc2ccc(Cl)cc2)c2ccc(Cl)cc12)Nc1ccncc1
64

Query O=C(CCc1cn(Cc2ccc(Cl)cc2)c2ccccc12)Nc1ccncc1 next
72

Try the molecule C[C@@H]1C[C@H]2[C@@H]3CCC4=CC(=O)C=C[C@]4(C)[C@@]3(F)[C@@H](O)C[C@]2(C)[C@@]1(O)C(=O)CO [DEXAMETHASONE]
82

Can you check O=C(CCc1cn(Cc2ccc(Cl)cc2)c2ccc(Cl)cc12)NCc1cccnc1 next?
84

----------
tested on: Mus musculus; test: inhibition of acute TPA-induced ear swelling in mice on oral administration of 0.1 nmol/kg; assay type: functional
quantity: inhibition in vivo at 0.0001 µmol/kg (%)
Give just the numeric value; % need not be written.

line_notation=O=C(CCc1cn(CCN2CCOCC2)c2ccccc12)Nc1ccncc1 measured_result=63

State the recorded inhibition in vivo at 0.0001 µmol/kg for this entry: Cc1cc(C)nc(NC(=O)CCc2cn(Cc3ccc(Cl)cc3)c3ccc(Cl)cc23)c1
83

Ok, now O=C(CCc1cn(Cc2ccccc2)c2ccccc12)Nc1ccncc1
84

Now consider Cc1cc(C)nc(NC(=O)/C=C/c2cn(Cc3ccc(F)cc3)c3ccccc23)c1 .
80

Try the compound Cc1cc(C)nc(NC(=O)CCc2cn(Cc3ccccc3)c3ccccc23)c1
61

Now consider O=C(CCc1cn(Cc2ccc(Cl)cc2)c2ccccc12)NCc1cccnc1 .
92

Source: ChEMBL document CHEMBL1137105
